molecular target: Rabbit skeletal myosin; assay: Skeletal muscle myosin II actin-activated ATPase assay; conditions: 20 nM skeletal muscle myosin II; read-out: SKMMII KI
pKi: −log10 of the molar value.
As shown below, each of these compounds has a reported pKi value.
MEASURE NAME: pKi

COc1cccc(N2CC[C@@]3(O)C(=O)c4cc(C)c(C)cc4N=C23)c1 [BPN-0026497]	5.01
Cc1ccc(N2CC[C@@]3(O)C(=O)c4cc(F)c(C)cc4N=C23)cc1	6.43
Cc1cc2c(s1)C(=O)[C@]1(O)CCN(c3ccc(C)c(Cl)c3)C1=N2	5.35
Cc1cc2c(cc1C)C(=O)[C@]1(O)CCN(c3cnc4c(c3)NCCO4)C1=N2	5.54

* * *

The entries below are paired with their reported Ratio CMMII:NMII Ki/EC50.
target: Bovine cardiac myosin (Bos taurus (Bovine)); test: Cardiac muscle myosin II actin-activated ATPase assay (NADH-coupled); format: biochemical; conditions: cardiac myosin II Ki over nonmuscle myosin II EC50
Sequence (Q9BE39 whole entry): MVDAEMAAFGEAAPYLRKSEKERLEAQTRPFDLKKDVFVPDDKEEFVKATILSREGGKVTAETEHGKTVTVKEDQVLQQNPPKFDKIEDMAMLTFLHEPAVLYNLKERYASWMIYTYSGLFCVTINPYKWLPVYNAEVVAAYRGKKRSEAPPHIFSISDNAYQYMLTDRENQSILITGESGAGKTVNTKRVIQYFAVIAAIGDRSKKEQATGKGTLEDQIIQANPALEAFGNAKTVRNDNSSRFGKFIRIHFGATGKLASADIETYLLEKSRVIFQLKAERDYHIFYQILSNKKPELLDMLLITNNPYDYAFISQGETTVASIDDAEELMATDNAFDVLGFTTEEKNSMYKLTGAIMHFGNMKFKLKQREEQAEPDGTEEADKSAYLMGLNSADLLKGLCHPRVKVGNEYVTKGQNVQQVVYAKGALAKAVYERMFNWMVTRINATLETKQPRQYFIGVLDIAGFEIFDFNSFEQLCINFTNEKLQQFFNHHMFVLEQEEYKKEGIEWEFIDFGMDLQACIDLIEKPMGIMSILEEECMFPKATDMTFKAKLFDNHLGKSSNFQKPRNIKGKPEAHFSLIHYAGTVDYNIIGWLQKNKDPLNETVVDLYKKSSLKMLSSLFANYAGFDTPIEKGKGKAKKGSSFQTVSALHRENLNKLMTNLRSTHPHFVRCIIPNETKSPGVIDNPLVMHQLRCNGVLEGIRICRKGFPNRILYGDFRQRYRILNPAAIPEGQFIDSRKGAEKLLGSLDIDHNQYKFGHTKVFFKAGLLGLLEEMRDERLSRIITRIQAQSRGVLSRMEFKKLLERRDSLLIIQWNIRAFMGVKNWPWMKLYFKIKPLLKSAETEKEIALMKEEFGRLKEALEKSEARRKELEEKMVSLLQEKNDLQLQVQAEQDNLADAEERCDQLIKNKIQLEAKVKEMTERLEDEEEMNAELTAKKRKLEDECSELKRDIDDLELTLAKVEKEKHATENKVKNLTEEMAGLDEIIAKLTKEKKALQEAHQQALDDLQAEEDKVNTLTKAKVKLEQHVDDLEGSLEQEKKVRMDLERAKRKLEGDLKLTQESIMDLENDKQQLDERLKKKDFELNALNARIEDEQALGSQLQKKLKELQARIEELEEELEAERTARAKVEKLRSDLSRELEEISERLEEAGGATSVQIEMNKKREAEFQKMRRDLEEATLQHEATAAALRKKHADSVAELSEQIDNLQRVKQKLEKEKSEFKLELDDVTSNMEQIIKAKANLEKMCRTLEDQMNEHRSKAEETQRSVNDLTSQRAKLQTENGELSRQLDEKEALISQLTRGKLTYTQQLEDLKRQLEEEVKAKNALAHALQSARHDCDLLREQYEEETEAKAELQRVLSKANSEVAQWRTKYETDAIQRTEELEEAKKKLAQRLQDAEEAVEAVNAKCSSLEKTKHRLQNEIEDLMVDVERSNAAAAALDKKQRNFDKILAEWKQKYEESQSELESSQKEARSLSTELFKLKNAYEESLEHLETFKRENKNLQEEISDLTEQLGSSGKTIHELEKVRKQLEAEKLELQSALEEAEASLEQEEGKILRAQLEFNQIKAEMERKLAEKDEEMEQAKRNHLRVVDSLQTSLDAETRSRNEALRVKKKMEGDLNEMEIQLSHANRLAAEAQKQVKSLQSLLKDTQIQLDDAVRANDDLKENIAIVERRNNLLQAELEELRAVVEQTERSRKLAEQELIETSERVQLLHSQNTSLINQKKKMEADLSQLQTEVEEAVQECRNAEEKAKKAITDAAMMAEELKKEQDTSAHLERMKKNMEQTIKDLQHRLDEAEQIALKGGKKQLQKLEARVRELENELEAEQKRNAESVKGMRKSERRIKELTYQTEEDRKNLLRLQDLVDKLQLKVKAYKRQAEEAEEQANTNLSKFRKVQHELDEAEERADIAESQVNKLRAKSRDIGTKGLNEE
Sequence (P85100 whole entry partner): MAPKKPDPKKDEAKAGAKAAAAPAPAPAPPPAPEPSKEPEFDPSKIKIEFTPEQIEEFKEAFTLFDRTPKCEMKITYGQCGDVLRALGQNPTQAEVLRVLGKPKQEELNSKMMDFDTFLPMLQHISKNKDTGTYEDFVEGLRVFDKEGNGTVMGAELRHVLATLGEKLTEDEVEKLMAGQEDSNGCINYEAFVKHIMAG
Sequence (Q3SZE5 whole entry partner): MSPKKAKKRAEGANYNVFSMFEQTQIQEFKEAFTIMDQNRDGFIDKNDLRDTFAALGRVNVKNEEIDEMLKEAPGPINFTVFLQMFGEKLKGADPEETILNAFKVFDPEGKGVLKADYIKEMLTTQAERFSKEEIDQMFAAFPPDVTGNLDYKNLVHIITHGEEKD
MEASURE NAME: Ratio CMMII:NMII Ki/EC50

Cc1ccc2c(c1)C(=O)[C@]1(O)CCN(c3ccc4cccnc4c3)C1=N2 [BPN-0027039]	3.1
CCC1=CC2N=C3N(c4ccc5ncccc5c4)CC[C@@]3(O)C(=O)C2S1 (some centres unmarked) [BPN-0028625]	56.6
CNc1cc(N2CC[C@@]3(O)C(=O)c4cc(C)c(C)cc4N=C23)ccn1 [BPN-0028650]	4.4
COc1ccc(N2CC[C@@]3(O)C(=O)c4cc(C)c(C(F)(F)F)cc4N=C23)cc1 [BPN-0026849]	16.0
Cc1cc2c(cc1C)C(=O)[C@]1(O)CCN(c3ccc(I)cc3)C1=N2 [BPN-0027109]	21.2
Cc1cc2c(cc1F)C(=O)[C@]1(O)CCN(c3ccccc3)C1=N2 [BPN-0026669]	4.7
COc1ccc(N2CC[C@@]3(O)C(=O)c4cc(C(F)(F)F)ccc4N=C23)cc1 [BPN-0026393]	3.2

* * *

assay: Photostability, percentage remaining undegraded under illumination or in the dark; conditions: percentage remaining undegraded after 4 hours illumination
Note to self: Photostability 4 hours under 80% means 1.0, ties and anything higher get 0.0.

Cc1cc2c(cc1C)C(=O)[C@]1(O)CCN(c3cccc(Cl)c3)C1=N2	0.0
Cc1ccc2c(c1)C(=O)[C@]1(O)CCN(c3cccc(Br)c3)C1=N2	0.0
Cc1cc2cc(N3CC[C@@]4(O)C(=O)c5cc(C)c(C)cc5N=C34)ccc2o1	1.0
COc1cc(N2CC[C@@]3(O)C(=O)c4cc(C)c(C(F)(F)F)cc4N=C23)ccn1	0.0
Cc1cc2c(cc1F)C(=O)[C@]1(O)CCN(c3ccc4ccoc4c3)C1=N2	1.0
Cc1cc2c(cc1C)C(=O)[C@]1(O)CCN(c3ccc4ncc(CO)cc4c3)C1=N2	1.0
Cc1cc2c(cc1C)C(=O)[C@]1(O)CCN(c3ccc4nc(CN(C)C)ccc4c3)C1=N2	0.0
Cc1ncc(N2CC[C@@]3(O)C(=O)c4cc(C)c(C)cc4N=C23)s1	1.0

* * *

assay: Photostability, percentage remaining undegraded under illumination or in the dark; conditions: percentage remaining undegraded in the dark, 24 h
// reported Photostability Dark (24 h) for each item listed
MEASURE NAME: Photostability Dark (24 h) (%)

COc1ncc(N2CC[C@@]3(O)C(=O)c4cc(C)c(C)cc4N=C23)cc1Cl	94.2
CCc1ccc2cc(N3CC[C@@]4(O)C(=O)c5cc(C)c(C)cc5N=C34)ccc2n1	98.7
Cc1ccc2c(c1)C(=O)[C@]1(O)CCN(c3ccc4nc(CO)ccc4c3)C1=N2	97.6
Cc1ccc2c(c1)C(=O)[C@]1(O)CCN(c3ccc4occc4c3)C1=N2	92.0
Cc1ccc2c(c1)C(=O)[C@]1(O)CCN(c3ccc(C)c(C)c3)C1=N2	98.3
Cc1sc2c(c1C)C(=O)[C@]1(O)CCN(c3ccc(Cl)cc3)C1=N2	90.2
Cc1ccc(N2CC[C@@]3(O)C(=O)c4cc(F)c(C)cc4N=C23)cc1C	98.1
Cc1cc2c(cc1C)C(=O)[C@]1(O)CCN(c3ccc4ccoc4c3)C1=N2	97.7
Cc1ccc2c(c1)C(=O)[C@]1(O)CCN(c3ccc4sc(C)nc4c3)C1=N2	98.8
Cc1ccc2c(c1)C(=O)[C@]1(O)CCN(c3ccc4ncsc4c3)C1=N2	97.4

Values compiled from patent US20250163056A1.
